// data source = patent US20100092481A1

biological target: hCMV UL128, UL130 and UL131A co-expressed in HEK293T cells (human cytomegalovirus, UniProt P16837 1-171; P16772 1-214); test: cell-based or functional assay
Sequence (P16837 whole entry, chain 1 of 2): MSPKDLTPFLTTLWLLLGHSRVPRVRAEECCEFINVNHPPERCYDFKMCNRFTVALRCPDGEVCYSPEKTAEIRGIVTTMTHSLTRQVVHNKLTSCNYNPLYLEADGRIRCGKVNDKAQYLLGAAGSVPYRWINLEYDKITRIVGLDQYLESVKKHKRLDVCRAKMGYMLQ
Sequence (P16772 whole entry, chain 2 of 2): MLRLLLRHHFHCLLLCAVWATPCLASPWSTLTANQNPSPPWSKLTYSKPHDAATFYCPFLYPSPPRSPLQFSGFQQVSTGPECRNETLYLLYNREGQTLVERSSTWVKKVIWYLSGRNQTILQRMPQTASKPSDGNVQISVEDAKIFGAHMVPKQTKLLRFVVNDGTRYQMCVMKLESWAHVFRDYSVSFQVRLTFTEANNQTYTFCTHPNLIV
Response field label takes Met when 90% Neutralization ARPE (hCMV VR1814) is strictly below 0.003 µg/mL and Not met in all other cases.

**Query** Is 90% Neutralization ARPE (hCMV VR1814) of 9I6 (antibody, V domains shown, human IgG mAb; also called 9I6-biotin; 916) VH: EVQLVQSGAEVKKPGESLKISCRESGDTFPAYWIAWVRQMPGKGLEWMGIIYPIDSETTYSPSFQGQVTISADKSINTAYLQWSSLKASDSAIYYCARGTSTGLREAFHIWGQGTMVTVSS VL: DVVMTQSPLSLAVTLGQPAYISCRSSQSLGYSDGNTYLNWFQQRPGQSPRRLIYEVSNRDSGVPDRFSGSGSGTDFTLKISRVEAEDVGTYYCMQGTHWPPMCSFGQGTKLEIK strictly below 0.003 µg/mL?
**Result** Met

**Query** Is 90% Neutralization ARPE (hCMV VR1814) of 2C12 (antibody, V domains shown, human IgG mAb; also called 2C12-biotin) VH: QITLRESGPTLVKPTQTLTLTCTFSGFSLNTNGVGVGWIRQPPGKALEWLALIYWNGNEGYSPSLKSRLTITKDTSKNQVVLTMTNMDPVDTATYYCVHWPQGLTTVTRLAFDIWGQGTMVTVSS VL: QSALTQPRSVSGSPGQSVTISCTGTTSDVGRYNFVSWYQQHPGKAPKLLMYDVSQRPSGVPSRFSGSKSGNTASLTISGLQAEDEAVFYCCSYAGGNFFSYVFGTGTKVTVL strictly below 0.003 µg/mL?
**Result** Not met

**Query** Is 90% Neutralization ARPE (hCMV VR1814) of 8C15 (antibody, V domains shown, human IgG mAb; also called 8C15-biotin) VH: QVQLQESGPGLVKPSETLSLTCTVSGGSIRSYYWSWIRQPPGKGLEWIGHIYYSGNTNYSPSLQSRVTISLDTPKNQFSLRLSSVTAADTAVYYCARHDVIVVRGVFDVWGQGTVVTVSS VL: QSALTQPASVSGSPGQSITISCTGTSSDIGTYNLVSWYQQHPGKAPKVLIYDGSKRPSGVSSRFSASKSGNTASLTISGLQAEDETDYYCCSYAGTSDFFVVFGGGTKLTVL strictly below 0.003 µg/mL?
**Result** Met

**Query** Is 90% Neutralization ARPE (hCMV VR1814) of 7I13 (antibody, V domains shown, human IgG mAb) VH: QVQLVESGGGVVQPGRSLRLSCAASGFTFSNYGMHWVRQGPGKGLEWVAVISYDASSKYYTDSVQGRFTISRDNSKNTLFLQMNSLRGEDTAVYYCAKALRYLDWFLSDPFDYWGQGTLVTVSS VL: EIVLTQSPGTLSLSPGERATLSCRASQSVSSDFLAWYQQKPGQAPRLLIYGASSRATGIPDRFSGSGSGTDFTLTISRLEPEDFAVYYCQQYAASPPFGQGTRLEIK strictly below 0.003 µg/mL?
**Result** Not met

**Query** Is 90% Neutralization ARPE (hCMV VR1814) of 8J16 (antibody, V domains shown, human IgG mAb; also called 8J16-biotin) VH: QVQLQESGPGLVKPSETLSLTCSVSGGFTSSYYWSWIRQAPGKGLEWIGYVYYGESTDYNPSLKSRATISIDTSKNQFSLKLSSVTAADTAVYYCAREVDKRGFDYWGQGALVTVSS VL: EIVLTQSPGTLSLSPGERATLSCRASQSVSGGYLAWYQQEPGQAPRLVIYGASSRATGIPDRFSASGSGTDFTLTITRLEPEDFAVYYCQQYGRTPLTFGGGTKVEIK strictly below 0.003 µg/mL?
**Result** Met
